6-keto Prostaglandin F1α release, EC50 (nM), Average for assorted binders
# system-tested: human KDR (human, UniProt P35968 20-1356)
# Sequence (P35968 20-1356): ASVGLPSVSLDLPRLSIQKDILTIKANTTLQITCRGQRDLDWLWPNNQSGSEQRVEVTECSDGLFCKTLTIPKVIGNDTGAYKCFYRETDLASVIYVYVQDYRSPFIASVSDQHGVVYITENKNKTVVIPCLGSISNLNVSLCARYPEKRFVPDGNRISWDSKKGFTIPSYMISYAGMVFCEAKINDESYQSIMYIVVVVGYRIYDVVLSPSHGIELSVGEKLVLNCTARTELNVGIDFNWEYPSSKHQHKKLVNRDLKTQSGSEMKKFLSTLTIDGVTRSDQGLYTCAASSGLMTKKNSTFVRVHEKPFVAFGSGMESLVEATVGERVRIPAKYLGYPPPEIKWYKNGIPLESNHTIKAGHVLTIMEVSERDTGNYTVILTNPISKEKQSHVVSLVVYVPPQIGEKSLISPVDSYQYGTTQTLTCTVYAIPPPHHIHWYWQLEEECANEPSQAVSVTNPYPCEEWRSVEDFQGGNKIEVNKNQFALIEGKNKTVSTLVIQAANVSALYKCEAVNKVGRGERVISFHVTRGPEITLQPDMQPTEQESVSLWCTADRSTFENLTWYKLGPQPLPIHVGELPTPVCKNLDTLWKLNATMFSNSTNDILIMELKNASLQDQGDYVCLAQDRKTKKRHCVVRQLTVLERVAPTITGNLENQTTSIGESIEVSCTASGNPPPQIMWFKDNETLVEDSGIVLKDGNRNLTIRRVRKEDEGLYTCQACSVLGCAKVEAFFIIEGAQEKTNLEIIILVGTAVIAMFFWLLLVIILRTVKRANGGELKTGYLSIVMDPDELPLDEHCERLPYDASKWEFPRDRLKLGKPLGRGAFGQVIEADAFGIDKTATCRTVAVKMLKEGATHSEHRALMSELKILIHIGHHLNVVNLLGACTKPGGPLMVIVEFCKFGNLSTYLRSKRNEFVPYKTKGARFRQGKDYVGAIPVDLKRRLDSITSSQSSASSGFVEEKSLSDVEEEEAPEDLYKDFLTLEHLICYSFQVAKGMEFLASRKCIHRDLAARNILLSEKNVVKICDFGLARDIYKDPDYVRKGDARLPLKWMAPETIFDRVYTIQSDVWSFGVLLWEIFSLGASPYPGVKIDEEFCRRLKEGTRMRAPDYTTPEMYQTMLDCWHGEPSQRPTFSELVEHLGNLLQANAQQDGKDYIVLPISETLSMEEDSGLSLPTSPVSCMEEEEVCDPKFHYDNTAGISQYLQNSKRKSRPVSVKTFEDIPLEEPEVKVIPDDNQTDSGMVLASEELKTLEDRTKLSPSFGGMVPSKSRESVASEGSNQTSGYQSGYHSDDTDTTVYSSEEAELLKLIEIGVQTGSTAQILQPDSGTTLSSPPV
# procedure-text: cell-based or functional assay
recorded-endpoint: 6-keto Prostaglandin F1α release, EC50 (nM), Average

{"binder": "33B1 (antibody, V domains shown, Fully human monoclonal antibody from a XenoMouse hybridoma (IgG2 or IgG4 strain), purified) VH: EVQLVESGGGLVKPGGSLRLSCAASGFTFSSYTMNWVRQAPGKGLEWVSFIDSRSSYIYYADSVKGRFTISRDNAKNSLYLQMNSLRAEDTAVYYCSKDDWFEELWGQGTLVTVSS VL: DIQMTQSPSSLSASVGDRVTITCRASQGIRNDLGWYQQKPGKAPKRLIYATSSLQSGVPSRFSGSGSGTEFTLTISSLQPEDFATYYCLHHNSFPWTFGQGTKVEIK", "reported-measurement": 3840}
{"binder": "24B3 (antibody, V domains shown, Fully human monoclonal antibody from a XenoMouse hybridoma (IgG2 or IgG4 strain), purified) VH: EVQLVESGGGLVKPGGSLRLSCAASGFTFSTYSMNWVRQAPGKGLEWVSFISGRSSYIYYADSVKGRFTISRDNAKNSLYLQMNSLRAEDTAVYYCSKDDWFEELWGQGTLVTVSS VL: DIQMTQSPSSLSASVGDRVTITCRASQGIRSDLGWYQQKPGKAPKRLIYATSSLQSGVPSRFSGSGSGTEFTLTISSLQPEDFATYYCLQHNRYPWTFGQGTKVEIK", "reported-measurement": 12.1}
{"binder": "22B8 (antibody, V domains shown, Fully human monoclonal antibody from a XenoMouse hybridoma (IgG2 or IgG4 strain), purified) VH: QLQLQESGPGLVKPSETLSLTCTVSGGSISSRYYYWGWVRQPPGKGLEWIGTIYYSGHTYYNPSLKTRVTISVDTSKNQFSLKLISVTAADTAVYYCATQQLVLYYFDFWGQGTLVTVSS VL: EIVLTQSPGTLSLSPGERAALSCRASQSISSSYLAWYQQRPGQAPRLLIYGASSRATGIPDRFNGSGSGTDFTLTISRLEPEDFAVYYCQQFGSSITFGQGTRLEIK", "reported-measurement": 5.3}
{"binder": "31E11 (antibody, V domains shown, Fully human monoclonal antibody from a XenoMouse hybridoma (IgG2 or IgG4 strain), purified) VH: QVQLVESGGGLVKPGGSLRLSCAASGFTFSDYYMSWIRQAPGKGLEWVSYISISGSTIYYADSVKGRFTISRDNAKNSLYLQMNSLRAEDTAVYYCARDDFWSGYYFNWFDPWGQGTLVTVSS VL: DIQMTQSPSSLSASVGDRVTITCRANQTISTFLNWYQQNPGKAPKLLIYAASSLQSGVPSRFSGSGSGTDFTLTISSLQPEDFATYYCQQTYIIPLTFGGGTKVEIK", "reported-measurement": 6.2}
{"binder": "32G7 (antibody, V domains shown, Fully human monoclonal antibody from a XenoMouse hybridoma (IgG2 or IgG4 strain), purified) VH: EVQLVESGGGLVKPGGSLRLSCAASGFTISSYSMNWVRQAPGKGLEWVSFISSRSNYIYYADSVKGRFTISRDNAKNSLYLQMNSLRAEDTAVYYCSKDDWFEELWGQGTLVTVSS VL: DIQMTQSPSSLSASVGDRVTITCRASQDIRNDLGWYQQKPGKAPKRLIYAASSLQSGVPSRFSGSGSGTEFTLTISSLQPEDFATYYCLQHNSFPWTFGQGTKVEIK", "reported-measurement": 23.1}
{"binder": "21H6 (antibody, V domains shown, Fully human monoclonal antibody from a XenoMouse hybridoma, purified) VH: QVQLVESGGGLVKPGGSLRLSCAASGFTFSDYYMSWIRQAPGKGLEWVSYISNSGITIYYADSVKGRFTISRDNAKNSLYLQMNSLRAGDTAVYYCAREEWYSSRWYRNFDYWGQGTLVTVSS VL: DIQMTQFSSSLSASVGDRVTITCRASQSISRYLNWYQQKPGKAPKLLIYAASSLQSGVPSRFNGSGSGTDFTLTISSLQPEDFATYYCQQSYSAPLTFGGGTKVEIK", "reported-measurement": 6.3}
{"binder": "33C3 (antibody, V domains shown, Fully human monoclonal antibody from a XenoMouse hybridoma (IgG2 or IgG4 strain), purified) VH: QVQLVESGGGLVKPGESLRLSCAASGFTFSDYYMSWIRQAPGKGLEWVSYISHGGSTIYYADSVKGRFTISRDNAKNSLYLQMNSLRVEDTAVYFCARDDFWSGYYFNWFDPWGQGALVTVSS VL: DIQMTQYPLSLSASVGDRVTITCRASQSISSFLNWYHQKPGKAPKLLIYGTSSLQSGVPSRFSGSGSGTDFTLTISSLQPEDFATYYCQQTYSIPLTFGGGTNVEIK", "reported-measurement": 3.9}
